The measured values listed here are drawn from patent US8058475B2.

- test target: human μ-opiate receptor (Homo sapiens)
- Sequence (P35372 whole entry): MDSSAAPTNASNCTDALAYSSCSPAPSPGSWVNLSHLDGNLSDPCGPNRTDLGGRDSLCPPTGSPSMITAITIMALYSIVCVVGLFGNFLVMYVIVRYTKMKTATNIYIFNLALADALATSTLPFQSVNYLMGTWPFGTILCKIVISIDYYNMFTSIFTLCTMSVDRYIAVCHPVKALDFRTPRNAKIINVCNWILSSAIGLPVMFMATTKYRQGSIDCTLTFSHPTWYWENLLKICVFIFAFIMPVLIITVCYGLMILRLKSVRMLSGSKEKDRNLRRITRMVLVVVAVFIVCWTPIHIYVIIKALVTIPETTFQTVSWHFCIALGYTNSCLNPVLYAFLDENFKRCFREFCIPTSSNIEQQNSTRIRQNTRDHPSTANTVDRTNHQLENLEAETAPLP
- experiment notes: Affinity for the human μ-opiate receptor ([3H]-naloxone displacement, SPA, CHO-K1 membrane preparation)
- Type: binding
- particulars: read-out: μ-Opioid receptor, Ki
Counter-ions that a name gives are not always drawn.
Entries and their Ki
Could you give me the number in nM? Just the number is fine.

# compound, Ki (nM)
data = [
    ("CCSc1ncccc1C(=O)NC1CCC(C(c2cccs2)N(C)C)CC1 (stereo not shown) [compound 213]", 96),
]

Consider the compound shown here: CN(C)C(c1ccccc1)C1CCC(NC(=O)Nc2ccc(F)cc2F)CC1 (stereo not shown) [compound 74, hydrochloride] What is its recorded Ki?
160

Need Ki of CCC(C)C(=O)NCC1CCC(C(c2cccc(F)c2)N(C)C)CC1 (single isomer, unassigned) [compound 378] , thanks.
55

Request the reported Ki associated with COc1ccc(CN(C(C)=O)C2CCC(C(c3ccccc3)N(C)C)CC2)cc1 (stereo not shown) [compound 176]
19

* * *

Here the recorded inhibition at 10 µM is given for each entry.
- test target: Serotonin (5HT) reuptake (Rattus norvegicus, UniProt P31652)
- Construct: synaptosomes are freshly isolated from areas of rat brain; from tissue; host or cells: rat brain synaptosomes (P2 fraction)
- Sequence (P31652 whole entry): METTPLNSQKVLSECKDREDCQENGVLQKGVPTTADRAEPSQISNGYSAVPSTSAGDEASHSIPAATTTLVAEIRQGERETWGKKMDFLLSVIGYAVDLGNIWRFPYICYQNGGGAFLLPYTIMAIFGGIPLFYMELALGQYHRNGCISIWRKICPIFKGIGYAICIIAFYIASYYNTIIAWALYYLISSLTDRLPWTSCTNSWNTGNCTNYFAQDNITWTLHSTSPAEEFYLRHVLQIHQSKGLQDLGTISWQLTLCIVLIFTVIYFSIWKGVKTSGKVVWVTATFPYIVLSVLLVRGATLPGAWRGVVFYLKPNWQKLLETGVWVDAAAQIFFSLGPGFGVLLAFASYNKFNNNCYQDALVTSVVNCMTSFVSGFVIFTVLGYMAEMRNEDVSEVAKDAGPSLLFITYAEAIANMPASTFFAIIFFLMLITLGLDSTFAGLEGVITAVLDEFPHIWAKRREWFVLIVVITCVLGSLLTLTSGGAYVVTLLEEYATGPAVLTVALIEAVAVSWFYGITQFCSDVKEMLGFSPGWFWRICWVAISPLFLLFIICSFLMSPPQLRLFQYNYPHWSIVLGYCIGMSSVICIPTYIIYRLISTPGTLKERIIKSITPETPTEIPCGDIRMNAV
- experiment notes: Serotonin (5HT) reuptake inhibition in rat brain synaptosomes (P2 fraction)
- Assay type: biochemical
- particulars: read-out: Serotonin reuptake, % inhibition [10 μM]
Structures can show the parent of a compound that is named as a salt.
Quick reminder: number only, in %, skip the unit.

# annotated cases, reported inhibition at 10 µM shown
# molecule, test target, value kind, units, reported value
rows = [
    ("CN(C)C(c1ccccc1)C1CCC(NC(=O)NCc2ccccc2)CC1 (stereo not shown)", "Serotonin (5HT) reuptake (Rattus norvegicus, UniProt P31652)", "inhibition at 10 µM", "%", 97),
    ("CN(C)C(c1ccccc1)C1CCC(NCc2ccc(F)cc2)CC1 (stereo not shown) [compound 91, hydrochloride]", "Serotonin (5HT) reuptake (Rattus norvegicus, UniProt P31652)", "inhibition at 10 µM", "%", 76),
    ("CN(C)C(c1ccccc1)C1CCC(NS(=O)(=O)c2ccccc2[N+](=O)[O-])CC1 (stereo not shown) [compound 109, hydrochloride]", "Serotonin (5HT) reuptake (Rattus norvegicus, UniProt P31652)", "inhibition at 10 µM", "%", 93),
]

Consider the molecule shown here: CN(C)C(c1ccccc1)C1CCC(N)CC1 (stereo not shown) What is its recorded inhibition at 10 µM?
86

Which inhibition at 10 µM value belongs to CN(C)C(CCc1ccccc1)C1CCC(CO)CC1 (stereo not shown) ?
77

Quick one: inhibition at 10 µM for CN(C)C(c1ccc(F)cc1)C1CCC(CO)CC1 (stereo not shown) ?
90

Given CN(C)C(c1ccccc1)C1CCC(N(Cc2ccccc2)C(=O)c2ccc(F)cc2)CC1 (stereo not shown) [compound 103, hydrochloride] , state its recorded inhibition at 10 µM.
93

Given the entry CN(C)C(c1cccc(F)c1)C1CCC(CCCO)CC1 (stereo not shown) , report its measured inhibition at 10 µM.
85

Would you kindly share the measured inhibition at 10 µM for CCOC(=O)CC1CCC(C(c2cccc(F)c2)N(C)C)CC1 (stereo not shown) ?
93

inhibition at 10 µM lookup needed for CCOC(=O)C=CC1CCC(C(CCc2ccccc2)N(C)C)CC1 (stereo not shown) , thanks.
83

For the molecule CN(C)C(CCc1ccccc1)C1CCC(O)CC1 (stereo not shown) , what inhibition at 10 µM is on record?
74

Can you look up the measured inhibition at 10 µM of CN(C)C(c1ccccc1)C1CCC(CC=O)CC1 (stereo not shown) for me?
92

Would you mind telling me what inhibition at 10 µM value was observed for CN(C)C(c1ccc(Cl)cc1)C1CCC(C=O)CC1 (stereo not shown) ?
75

For the molecule shown here, CN(C)C(c1ccccc1)C1CCC(NCCCCc2ccccc2)CC1 (stereo not shown) [compound 87, hydrochloride] , give the reported inhibition at 10 µM.
95
